Biological target: BCL6::BCOR (Homo sapiens, UniProt P41182, C67R/C84N/C8Q)
Construct: BCL6 (amino acids 5 to 129, with the following changes to the natural protein)
Test: BCL6::BCOR ULight TR-FRET assay
Test readout: pIC50
Keep it numeric: pIC50 is minus log10 of the concentration in mol/L.

Worked set:
## Input Please look at this molecule and report its pIC50: CNC(=O)COc1cc2cc(Nc3nc(N4CCC(N5CC6CCC5CC6)CC4)ncc3Cl)ccc2n(C)c1=O
## Output 7.96

## Input Please look at this molecule and report its pIC50: CNC(=O)COc1cc2cc(Nc3nc(N4CCCC(F)CC4)ncc3Cl)ccc2n(C)c1=O (stereo not shown)
## Output 8.30

## Input Please look at this molecule and report its pIC50: Cn1c(=O)c(OCC(=O)O)cc2cc(Nc3nc(N4CCc5ccccc5CC4)ncc3Cl)ccc21
## Output 6.68

***
## Input Please look at this molecule and report its pIC50: COCCN(C)C(=O)COc1cc2cc(Nc3nc(N4C[C@H](C)C[C@H](C)C4)ncc3Cl)ccc2n(C)c1=O
## Output 7.11
